B1: Cytochrome b5, P00171 (parent)
chain: MAEESSKAVKYYTLEEIQKHNNSKSTWLILHYKVYDLTKFLEEHPGGEEVLREQAGGDATENFEDVGHSTDARELSKTFIIGELHPDDRSKITKPSESIITTIDSNPSWWTNWLIPAISALFVALIYHLYTSEN

# Variants of: B1
# Applied Conditions: Bos taurus; pH 7; Thermal; Absorbance; Sodium phosphate 100 mM; structure 1CYO; whole UniProt chain shown
Measurement Kind: change of melting temperature, mutant - wild type (higher = more stable) (°C)
Give the quantity in °C, number only.

Below are worked cases with known answers.
V66Y | -4.7
V66K | -8.7
V66H | -5.9

INPUT: Endpoint output: change of melting temperature, mutant - wild type (higher = more stable) of V66E . Value?
OUTPUT: -4

The values you see were collected from FireProtDB (doi:10.1021/bi990893b).
